# Experiment description: NCI Yeast Anticancer Drug Screen. Data for the wt1 strain (AID 149)
# Recorded conditions: S. cerevisiae wt1 strain (SPY 50644) growth inhibition; at 100.0 µM; active compounds read high
The panel holds about 79,000 compounds, 15% with a hit somewhere; the sample as a whole holds those more often.
Would you please tag the item Y when its growth inhibition is 90% or above, and N when it is below?

- OC(c1ccccc1)(c1ccccc1)c1nccc2ccccc12: N
- COC1=CCC23C(=O)C=CC(=O)C2(C1)C(=O)c1ccccc1C3=O (stereo not given): Y
- CC1=CC(C)(C)SC(SSSC2=NC(C)=CC(C)(C)S2)=N1: N
- c1ccc(-c2cc(C3CO3)c3ccccc3n2)cc1 (stereo not given): Y
- C=CCNC1=C2C[C@@H](C)C[C@H](OC)[C@H](O)[C@@H](C)/C=C(\C)[C@H](OC(N)=O)[C@@H](OC)/C=C\C=C(/C)C(=O)NC(=CC1=O)C2=O: Y
- O=C1C2=C(c3ccccc31)C(c1ccccc1)N1C(=O)CSC1=N2 (stereo not given): N
- CNC(=O)OCc1c(COC(=O)NC)c(C)n(-c2ccc(Br)cc2)c1C: Y
- COc1ccc(/C=C2\SC(=S)N(/C=C3\C(=O)N(c4ccccc4)N=C3C)C2=O)cc1OC: N
- Cc1c2c(nc3ccccc13)C(=O)c1cccnc1C2=O: N
